Assay: activity coefficient (dimensionless); of the first substance listed, at infinite dilution; xn = mol fraction of the nth substance listed
Conditions: 348.15 K; 101.33 kPa; Liquid; Chromatography; x1 = 0
Listed here: items and their measured activity coefficient.
value type: activity coefficient

                                    molecule  result
 0  Cc1ccccc1C [1,2-dimethylbenzene] + C[N+]1(CCCO)CCOCC1.N#C[N-]C#N      19
 1  C=CCCCCC [1-heptene] + C[n+]1ccn(CCCO)c1.N#CN=C=[N-]     146
 2  CCCCCO [pentan-1-ol] + C[N+]1(CCCO)CCOCC1.N#C[N-]C#N    7.11
 3  CC(C)c1ccccc1 [isopropylbenzene] + C[n+]1ccn(CCCO)c1.N#CN=C=[N-]    26.8
 4  CCC(C)(C)OC [2-methoxy-2-methylbutane] + C[n+]1ccn(CCCO)c1.N#CN=C=[N-]    37.5
 5  CCCO [propan-1-ol] + C[n+]1ccn(CCCO)c1.N#CN=C=[N-]    1.76
 6  CC(C)CO [2-methyl-1-propanol] + C[n+]1ccn(CCCO)c1.N#CN=C=[N-]    2.64
 7  CCOC(C)=O [ethyl acetate] + C[n+]1ccn(CCCO)c1.N#CN=C=[N-]    6.36
 8  CCC(=O)OC [methyl propanoate] + C[n+]1ccn(CCCO)c1.N#CN=C=[N-]    5.92
 9  CC(C)OC(C)C [diisopropyl ether] + C[n+]1ccn(CCCO)c1.N#CN=C=[N-]      88
10  CCC(C)O (centres undefined) [butan-2-ol] + C[n+]1ccn(CCCO)c1.N#CN=C=[N-]    2.72
11  CC1CCCCC1 [methylcyclohexane] + C[n+]1ccn(CCCO)c1.N#CN=C=[N-]     131
12  C1COCCO1 [1,4-dioxane] + C[n+]1ccn(CCCO)c1.N#CN=C=[N-]    2.09
13  COC(C)=O [methyl ethanoate] + C[N+]1(CCCO)CCOCC1.N#C[N-]C#N    4.64
14  C#CCCCCC [1-heptyne] + C[n+]1ccn(CCCO)c1.N#CN=C=[N-]    35.3
15  CCCCCCCCC [nonane] + C[n+]1ccn(CCCO)c1.N#CN=C=[N-]     780
16  CCC(=O)CC [pentan-3-one] + C[n+]1ccn(CCCO)c1.N#CN=C=[N-]    5.71
17  c1ccncc1 [pyridine] + C[N+]1(CCCO)CCOCC1.N#C[N-]C#N    1.97
18  COC(C)=O [methyl ethanoate] + C[n+]1ccn(CCCO)c1.N#CN=C=[N-]     3.5

====

Assay: activity coefficient (dimensionless); of the first substance listed, at infinite dilution; xn = mol fraction of the nth substance listed
Conditions: 348.15 K; 101.33 kPa; Liquid; Chromatography; x1 = 0
value type: activity coefficient

>>> print(df.to_string())
                                   compound            value_type  result
0  Cc1ccccc1 [toluene] + C[N+]1(CCCO)CCOCC1.N#C[N-]C#N  activity coefficient    13.4
1  CCC(C)O (configuration not stated) [butan-2-ol] + C[N+]1(CCCO)CCOCC1.N#C[N-]C#N  activity coefficient     4.2
2  CO [methanol] + C[N+]1(CCCO)CCOCC1.N#C[N-]C#N  activity coefficient   0.778
3  CO [methanol] + C[n+]1ccn(CCCO)c1.N#CN=C=[N-]  activity coefficient    0.66
4  C=C(C)c1ccccc1 [(1-methylethenyl)benzene] + C[N+]1(CCCO)CCOCC1.N#C[N-]C#N  activity coefficient    20.1
5  CC#N [acetonitrile] + C[N+]1(CCCO)CCOCC1.N#C[N-]C#N  activity coefficient    1.37
6  CCc1ccccc1 [ethylbenzene] + C[n+]1ccn(CCCO)c1.N#CN=C=[N-]  activity coefficient    15.5

====

Reported activity coefficient values are given for each entry in this list.
Assay: activity coefficient (dimensionless); of the first substance listed, at infinite dilution; xn = mol fraction of the nth substance listed
Conditions: 318.15 K; 101.33 kPa; Liquid; Chromatography; x1 = 0
value type: activity coefficient

>>> print(df.to_string())
                                   molecule            value_type  result
0  CCCCCCCC [octane] + C[n+]1ccn(CCCO)c1.N#CN=C=[N-]  activity coefficient     698
1  C=COC(C)=O [vinyl acetate] + C[N+]1(CCCO)CCOCC1.N#C[N-]C#N  activity coefficient    6.62
2  CCCC(=O)OC [methyl butanoate] + C[n+]1ccn(CCCO)c1.N#CN=C=[N-]  activity coefficient    9.03
3  CC(C)=O [acetone] + C[n+]1ccn(CCCO)c1.N#CN=C=[N-]  activity coefficient    1.76
4  CCO [ethanol] + C[N+]1(CCCO)CCOCC1.N#C[N-]C#N  activity coefficient    1.71
5  C=CCCCCCCCC [1-decene] + C[N+]1(CCCO)CCOCC1.N#C[N-]C#N  activity coefficient    1460

====

Assay: activity coefficient (dimensionless); of the first substance listed, at infinite dilution; xn = mol fraction of the nth substance listed
Details: 348.15 K; 101.33 kPa; Liquid; Chromatography; x1 = 0
Form field: activity coefficient (one value per entry).
value type: activity coefficient

>>> print(df.to_string())
                                    compound  result
 0  CCCc1ccccc1 [propylbenzene] + C[N+]1(CCCO)CCOCC1.N#C[N-]C#N    51.5
 1  CCC(C)(C)OC [2-methoxy-2-methylbutane] + C[N+]1(CCCO)CCOCC1.N#C[N-]C#N      74
 2  C=CCCCC [hex-1-ene] + C[n+]1ccn(CCCO)c1.N#CN=C=[N-]    92.5
 3  O [water] + C[N+]1(CCCO)CCOCC1.N#C[N-]C#N   0.395
 4  CCC[N+](=O)[O-] [1-nitropropane] + C[n+]1ccn(CCCO)c1.N#CN=C=[N-]    2.97
 5  C#CCCCCC [1-heptyne] + C[N+]1(CCCO)CCOCC1.N#C[N-]C#N      72
 6  c1ccccc1 [benzene] + C[n+]1ccn(CCCO)c1.N#CN=C=[N-]    4.92
 7  C#CCCC [1-pentyne] + C[n+]1ccn(CCCO)c1.N#CN=C=[N-]    12.1
 8  CCC(=O)OC [methyl propanoate] + C[N+]1(CCCO)CCOCC1.N#C[N-]C#N     8.7
 9  CCCCCCCCC [nonane] + C[N+]1(CCCO)CCOCC1.N#C[N-]C#N    1160
10  CCCCCO [pentan-1-ol] + C[n+]1ccn(CCCO)c1.N#CN=C=[N-]    4.06
11  CCCC=O [butanal] + C[n+]1ccn(CCCO)c1.N#CN=C=[N-]    3.43
12  c1ccccc1 [benzene] + C[N+]1(CCCO)CCOCC1.N#C[N-]C#N    7.33
13  Cc1ccc(C)cc1 [1,4-dimethylbenzene] + C[n+]1ccn(CCCO)c1.N#CN=C=[N-]    14.7
14  CCCOCCC [dipropyl ether] + C[N+]1(CCCO)CCOCC1.N#C[N-]C#N     166
15  C#CCCCCCC [1-octyne] + C[N+]1(CCCO)CCOCC1.N#C[N-]C#N     128
16  C=CCCCCCCCC [1-decene] + C[n+]1ccn(CCCO)c1.N#CN=C=[N-]     627
17  CCCC(=O)OC [methyl butanoate] + C[n+]1ccn(CCCO)c1.N#CN=C=[N-]    9.96
18  CCO [ethanol] + C[N+]1(CCCO)CCOCC1.N#C[N-]C#N    1.57

====

Assay: activity coefficient (dimensionless); of the first substance listed, at infinite dilution; xn = mol fraction of the nth substance listed
Settings: 328.15 K; 101.33 kPa; Liquid; Chromatography; x1 = 0
Here the recorded activity coefficient is given for each entry.
value type: activity coefficient

>>> df
                                   compound            value_type  result
0  CCCO [propan-1-ol] + C[n+]1ccn(CCCO)c1.N#CN=C=[N-]  activity coefficient    1.76
1  C1CCCCC1 [cyclohexane] + C[n+]1ccn(CCCO)c1.N#CN=C=[N-]  activity coefficient    91.1
2  C=CCCCCCC [oct-1-ene] + C[N+]1(CCCO)CCOCC1.N#C[N-]C#N  activity coefficient     635
3  Cc1ccccc1C [1,2-dimethylbenzene] + C[N+]1(CCCO)CCOCC1.N#C[N-]C#N  activity coefficient    18.6
4  CC(C)O [propan-2-ol] + C[N+]1(CCCO)CCOCC1.N#C[N-]C#N  activity coefficient    2.78
5  COC(C)(C)C [2-methoxy-2-methylpropane] + C[N+]1(CCCO)CCOCC1.N#C[N-]C#N  activity coefficient    49.7
6  C=CCCCC [hex-1-ene] + C[n+]1ccn(CCCO)c1.N#CN=C=[N-]  activity coefficient     102
7  CCCCCCCCCC [decane] + C[N+]1(CCCO)CCOCC1.N#C[N-]C#N  activity coefficient    1980
8  CCCCCCCCCC [decane] + C[n+]1ccn(CCCO)c1.N#CN=C=[N-]  activity coefficient    1380
